Origin of values: patent US20260015426A1

# systemName: T1, human IL1RAP (hu-IL1RAP) on human cells (human, UniProt Q9NPH3 21-570)
# T1 sequence: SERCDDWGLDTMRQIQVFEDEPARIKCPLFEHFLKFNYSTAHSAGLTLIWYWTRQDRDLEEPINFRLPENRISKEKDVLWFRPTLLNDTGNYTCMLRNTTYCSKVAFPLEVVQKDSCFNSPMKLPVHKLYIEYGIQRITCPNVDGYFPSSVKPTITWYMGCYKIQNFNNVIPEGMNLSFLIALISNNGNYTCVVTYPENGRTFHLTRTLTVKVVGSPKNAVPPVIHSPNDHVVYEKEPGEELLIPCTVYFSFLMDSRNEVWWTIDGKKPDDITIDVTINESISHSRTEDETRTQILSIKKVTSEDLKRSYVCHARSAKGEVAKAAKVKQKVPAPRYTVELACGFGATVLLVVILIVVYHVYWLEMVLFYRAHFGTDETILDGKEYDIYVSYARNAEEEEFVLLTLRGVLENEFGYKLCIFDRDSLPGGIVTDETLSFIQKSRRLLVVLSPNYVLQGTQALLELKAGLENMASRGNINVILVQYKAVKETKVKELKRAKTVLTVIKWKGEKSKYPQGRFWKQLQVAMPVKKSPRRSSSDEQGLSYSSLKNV
# procedureDetails: cell-based or functional assay
measurementType: HEK-Blue SEAP, IL-1β, % inhibition (supernatant) (%)

{"binder": "10A11 (purified mAb from hybridoma 10A11) (antibody, V domains shown, Mouse hybridoma mAb) VH: EVQLQQSGAELVKPGASVRLSCTSSGFNIKDYFMHWVKQRTEQGLEWVGRIDPEDGETQYAPNFQDKATITVDTSSNTVYLQLSSLTSEDTAVYYCFRPLYYGNSPWFAYWGQGTLVTVSP VL: DIQMTQTTSSLSASLGDRVTISCRASQDISNYLNWYQQKPDGTVKLLIYYTSTLHSGVPSRFSGSGSGTDYSLTISNLEPEDIATYYCHQYSKFPPTFGSGTKLEIK", "valueReported": 53}
{"binder": "8H1 (purified mAb from hybridoma 8H1) (antibody, V domains shown, Mouse hybridoma mAb) VH: QVQLQQSGPELVKSGASVRISCKASGYAFSGSWMNWVKQRPGKGLEWIGRIYPGDGNTNYNGKFKDKATLTADKSSSTAFMQLSSLTSEDSAVYFCARDYYLFYFDYWGQGTTLTVSS VL: NIVMTQTPKFLPVAAEDRVIITCKASQDVSNEVAWYQQKPGQSPKLLMYYASNRYTGVPDRFTGSGSGTDFTFTISSVQVEDLAVYFCQQHYSSPLTFGAGTKLELK", "valueReported": 45}
{"binder": "13D8 (purified mAb from hybridoma 13D8) (antibody, V domains shown, Mouse hybridoma mAb) VH: EVQLVESGGGLVKPGGSLKLSCTASGFTFSNYAMSWVRQTPEKRLEWVATISDGGNYTYYPDNVKGRFTISRDIAKNNLYLQMSHLKSEDTAMYYCARDRWPYFFDFWGQGTTLTVSS VL: DIQMTQSPASLSVSVGETVTITCRASDNIYSNLAWYQEKQGKSPQLLVYGATNLADGVPSRFSGSGSGTQYSLKINSLQSEDFGSYYCQHFWTTPRSFGGGTKLELK", "valueReported": 48}
{"binder": "11C5(Hy) (purified mAb from the 11C5 hybridoma) (antibody, V domains shown, Mouse hybridoma mAb; also called 11C5(Hy) mAb; mAb 11C5(Hy)) VH: EVQLVESGGGLVKPGGSLKLSCAASGFTFSNYAMSWVRQTPEKRLEWVATVTEGGDYNYCLDDVKGRFTISRDNANDNLYLQMSHLKSEDSARYYCARDRWPYFFDYWGQGTTLTVSS VL: DIQMTQSPASLSVSVGETVTITCRASENIYSNLAWYQQKQGRSPQLLVYGAKNLADGVPSRFSGSGSGTQYSLNINSLQSEDFGTYYCQHFWTTPRTFGGGTKLEIK", "valueReported": 84}
